Recorded measurements of pest or weed control at 200 ppm, one per entry
# Tested on: Sweetpotato Whitefly-Crawler (Bemisia Tabaci)
# Run description: Insecticidal test for sweetpotato whitefly-crawler in foliar spray assay (col. BEMITA)
# Assay type: in vivo
# Study conditions: Bemisia tabaci, sweetpotato whitefly-crawler, read-out: BEMITA 200 ppm (Corrected % Control, rating)

Molecule	pest or weed control at 200 ppm
CSCCNC(=O)N(C)c1cnc(-c2cncc(F)c2)s1	< 80%
CSCC(C)(C)C(=O)N(C)c1sc(-c2cccnc2)nc1C(F)(F)F	80 to 100%
CC(C)C(=O)N(C)c1cnc(-c2cccnc2)s1	80 to 100%
Cc1nc(-c2cccnc2)sc1N(CCF)C(=O)OC(C)(C)C	80 to 100%
CN(C(=O)C(C)(C)C[S+](C)[O-])c1sc(-c2cccnc2)nc1Cl (centres unmarked)	80 to 100%
CCN(C(=O)CCSC(C)C)c1sc(-c2cccnc2)nc1C	< 80%
CCN(C(=O)CCSC)c1cnc(-c2cncc(F)c2)s1	80 to 100%
COC(=O)CCC(=O)Nc1sc(-c2cccnc2)nc1C	< 80%
CC(C)(C)OC(=O)Nc1sc(-c2cncc(F)c2)nc1Br	< 80%
CC(C[S+](C)[O-])C(=O)N(C)c1cnc(-c2cccnc2)s1 (centres unmarked)	< 80%
C=CCSCC(C)C(=O)Nc1sc(-c2cncc(F)c2)nc1C (centres unmarked)	80 to 100%
CCCCOC(=O)Nc1sc(-c2cccnc2)nc1C	80 to 100%
CCSCCC(=O)N(CC)c1sc(-c2cncc(F)c2)nc1C	80 to 100%
C=CC[S+]([O-])CC(C)C(=O)Nc1sc(-c2cccnc2)nc1C (centres unmarked)	80 to 100%
CCN(C(=O)OC(C)(C)C)c1sc(-c2cncc(F)c2)nc1F	80 to 100%
CSCCNC(=O)N(C)c1sc(-c2cccnc2)nc1C	< 80%
CC(C)C(=O)Nc1sc(-c2cccnc2)nc1C(F)(F)F	< 80%
COC(=O)Nc1sc(-c2cccnc2)nc1C	< 80%
CCN(C(=O)OC(C)(C)C)c1sc(-c2cccnc2)nc1C	80 to 100%
Cc1nc(-c2cccnc2)sc1NC(=O)CCS(C)(=O)=O	< 80%

* * *

# System: Sweetpotato Whitefly-Crawler (Bemisia Tabaci)
# Run description: Insecticidal test for sweetpotato whitefly-crawler in foliar spray assay (col. BEMITA)
# Format: in vivo
# Study conditions: Bemisia tabaci, sweetpotato whitefly-crawler, read-out: BEMITA 200 ppm (Corrected % Control, rating)

Molecule	Tested on	pest or weed control at 200 ppm
Cc1nc(-c2cccnc2)sc1N(C)C(=O)C(C)(C)CS(C)(=O)=O	Sweetpotato Whitefly-Crawler (Bemisia Tabaci)	80 to 100%
C=CC[S+]([O-])CC(C)C(=O)Nc1sc(-c2cncc(F)c2)nc1C (stereo not drawn)	Sweetpotato Whitefly-Crawler (Bemisia Tabaci)	< 80%
CSCC(C)C(=O)Nc1sc(-c2cncc(F)c2)nc1Cl (stereo not drawn)	Sweetpotato Whitefly-Crawler (Bemisia Tabaci)	80 to 100%
CSC(C)CC(=O)N(C)c1sc(-c2cncc(F)c2)nc1C (stereo not drawn)	Sweetpotato Whitefly-Crawler (Bemisia Tabaci)	80 to 100%
CSCCC(=O)N(C)c1sc(-c2cccnc2)nc1C	Sweetpotato Whitefly-Crawler (Bemisia Tabaci)	80 to 100%
CN(C(=O)C(C)(C)C)c1cnc(-c2cncc(F)c2)s1	Sweetpotato Whitefly-Crawler (Bemisia Tabaci)	80 to 100%
CCO[C@@H]1[C@@H](OC)[C@H](C)OC(OC(=O)Nc2sc(-c3cccnc3)nc2C)[C@@H]1OC (mixture of isomers)	Sweetpotato Whitefly-Crawler (Bemisia Tabaci)	< 80%
Cc1nn(CC(=O)N(C)c2sc(-c3cccnc3)nc2Cl)c(C)c1S(=O)(=O)N(C)C	Sweetpotato Whitefly-Crawler (Bemisia Tabaci)	80 to 100%
Cc1nc(-c2cncc(F)c2)sc1N(C)C(=O)CC[S+](C)[O-] (stereo not drawn)	Sweetpotato Whitefly-Crawler (Bemisia Tabaci)	80 to 100%

* * *

# System: Sweetpotato Whitefly-Crawler (Bemisia Tabaci)
# Run description: Insecticidal test for sweetpotato whitefly-crawler in foliar spray assay (col. BEMITA)
# Assay type: in vivo
# Study conditions: Bemisia tabaci, sweetpotato whitefly-crawler, read-out: BEMITA 200 ppm (Corrected % Control, rating)
Recorded pest or weed control at 200 ppm by entry
Property measured: pest or weed control at 200 ppm

Molecule	Data value
CC(=O)c1ccc(C(=O)N(C)c2sc(-c3cccnc3)nc2Cl)s1 [Compound 351]	< 80%
Cc1nc(-c2cccnc2)sc1N(C)C(=S)NC(C)C [Compound 386]	80 to 100%
CC(CS(C)(=O)=O)C(=O)Nc1sc(-c2cncc(F)c2)nc1Br (centres unmarked) [Compound 307]	< 80%
CCc1cc(C(=O)Nc2sc(-c3cccnc3)nc2C)no1 [Compound 387]	80 to 100%
CSCCC(=O)Nc1sc(-c2cncc(F)c2)nc1Cl [Compound 421]	< 80%

* * *

Catalogue of melting point values

Compound	melting point
CC(C)(C)OC(=O)N(C(=O)OC(C)(C)C)c1cnc(-c2cncc(F)c2)s1	94 to 96 °C
CSCC(C)C(=O)N(C(=O)OC(C)(C)C)c1sc(-c2ccc(Cl)nc2)nc1C (stereo not shown)	82 to 85 °C
CSCCC(=O)N(C)c1cnc(-c2cncc(F)c2)s1	111 to 114 °C
C/C=C/C(=O)N(C)c1sc(-c2cccnc2)nc1Br	121 to 125 °C
Cc1nc(-c2ccc(F)nc2)sc1NC(=O)C(C)C	182 to 186 °C
CN(C(=O)CC(F)(F)F)c1cnc(-c2cccnc2)s1	126 to 128 °C
CC(C)C(=O)N(C)c1sc(-c2cncc(F)c2)nc1Cl	123 to 125 °C
CCN(C(=O)CC[S+](C)[O-])c1sc(-c2cccnc2)nc1C (stereo not shown)	89 to 92 °C
COC(=O)CCC(=O)N(C)c1cnc(-c2cccnc2)s1	127 to 129 °C
C=CC[S+]([O-])CC(C)C(=O)Nc1sc(-c2cncc(F)c2)nc1C (stereo not shown)	170 to 174 °C
CCSCC(=O)N(C)c1sc(-c2cccnc2)nc1Cl	68 to 71 °C
Cc1nc(-c2cccnc2)sc1NC(=O)c1cccc(SC(F)F)c1	158 to 159 °C
CS[C@H]1CC1C(=O)N(C)c1sc(-c2cncc(F)c2)nc1C (stereo partly shown)	88 to 90 °C
Cc1nc(-c2cncc(F)c2)sc1N(C)C(=O)C1CCCN(C(=S)NC2CC2)C1 (stereo not shown)	190 to 192 °C
CC(C)C(=O)N(C)c1cnc(-c2cncc(F)c2)s1	156 to 158 °C
Cc1nc(-c2cncc(F)c2)sc1NC(=O)OC(C)(C)C	160 to 161 °C
CN(C(=O)OCC[S+](C)[O-])c1cnc(-c2cncc(F)c2)s1 (stereo not shown)	153 to 155 °C
CSCCC(=O)N(C(=O)OC(C)(C)C)c1sc(-c2cncc(F)c2)nc1C#N	105 to 106 °C
Cc1nc(-c2cccnc2)sc1NC(=O)[C@H](C)NC(=O)OC(C)(C)C	166 to 169 °C

* * *

Property measured: melting point

Compound	Data value
CSCC(=O)Nc1sc(-c2cccnc2)nc1C	164 to 167 °C
COc1ncc(-c2nc(Cl)c(N(C)C(=O)CCSC)s2)cc1F	92 to 94 °C
CCN(C(=O)c1cn(C)nc1C(F)(F)F)c1sc(-c2cccnc2)nc1Cl	110 to 111 °C
CC(C)(C)OC(=O)N(C(=O)OC(C)(C)C)c1cnc(-c2cccnc2)s1	114 to 117 °C
CC(C)(C)OC(=O)Nc1sc(-c2cncc(F)c2)nc1Br	164 to 166 °C
CSC(C)CC(=O)Nc1sc(-c2cncc(F)c2)nc1C (stereo not shown)	130 to 133 °C
Cc1nc(-c2cncc(F)c2)sc1NC(=O)C(C)C/S(C)=N\C#N (stereo not shown)	75 to 81 °C
Cc1nc(-c2cccnc2)sc1NC(=O)c1cnn(C)c1	219 to 222 °C
CSCCOC(=O)Nc1sc(-c2cccnc2)nc1C	123 to 126 °C
CSCC(C)C(=O)Nc1sc(-c2cccnc2)nc1C (stereo not shown)	132 to 136 °C

* * *

The reader will find reported pest or weed control at 200 ppm values listed item by item below.
# System: Sweetpotato Whitefly-Crawler (Bemisia Tabaci)
# Run description: Insecticidal test for sweetpotato whitefly-crawler in foliar spray assay (col. BEMITA)
# Format: in vivo
# Study conditions: Bemisia tabaci, sweetpotato whitefly-crawler, read-out: BEMITA 200 ppm (Corrected % Control, rating)
# Description: The compounds were tested against cotton aphid, green peach aphid, and sweet potato whitefly using procedures described in the following examples and reported in Table 2. In each case of Table 2, the rating scale is as follows at 200 ppm. Insecticidal Test for Sweetpotato Whitefly-Crawler (Bemisia Tabaci) in Foliar Spray Assay Cotton plants grown in 3-inch pots, with 1 small (3-5 cm) true leaf, were used as test substrate. The plants were placed in a room with whitefly adults. […]

Compound	pest or weed control at 200 ppm
CSCC(C)(C)C(=O)N(C)c1sc(-c2cccnc2)nc1Cl	80 to 100%
CCOC(=O)c1cncc(-c2nc(C)c(NC(=O)C(C)CSC)s2)c1 (stereo not drawn)	< 80%
CCN(C(=O)C(C)CSC)c1sc(-c2cncc(F)c2)nc1C (stereo not drawn)	80 to 100%
CSCC(C)(C)C(=O)N(C)c1cnc(-c2ccc(Cl)nc2)s1	80 to 100%
CN(C(=O)CC(F)(F)F)c1cnc(-c2cccnc2)s1	< 80%
Cc1nc(-c2cccnc2)sc1N(C)C(=O)CC[S+](C)[O-] (stereo not drawn)	80 to 100%
CSCC(C)C(=O)N(C(C)=O)c1sc(-c2cccnc2)nc1C (stereo not drawn)	80 to 100%
CSCC(C)C(=O)N(C)c1cnc(-c2cncc(F)c2)s1 (stereo not drawn)	80 to 100%
CSCC(C)C(=S)Nc1sc(-c2cccnc2)nc1C (stereo not drawn)	80 to 100%
